# credit: paper PMC11480844

Molecular target: T1, peptide on HLA-B*07:02 (human)
T1 peptide: VPSVWRSSL
Assay: activation reporter or marker
assayMetric: binding result

R28 (TCR, V domains shown) Valpha: AQTVTQSQPEMSVQEAETVTLSCTYDTSESDYYLFWYKQPPSRQMILVIRQEAYKQQNATENRFSVNFQKAAKSFSLKISDSQLGDAAMYFCAYRSAGNQGAQKLVFGQGTRLTINP Vbeta: ETGVTQSPTHLIKTRGQQVTLRCSSQSGHNTVSWYQQALGQGPQFIFQYYREEENGRGNFPPRFSGLQFPNYSSELNVNALELDDSALYLCASSLGRGTYEQYFGPGTRLTVT : recognises
R26 (TCR, V domains shown) Valpha: GQQVMQIPQYQHVQEGEDFTTYCNSSTTLSNIQWYKQRPGGHPVFLIQLVKSGEVKKQKRLTFQFGEAKKNSSLHITATQTTDVGTYFCAGQDYAGKSTFGDGTTLTVKP Vbeta: DTGVSQNPRHKITKRGQNVTFRCDPISEHNRLYWYRQTLGQGPEFLTYFQNEAQLEKSRLLSDRFSAERPKGSFSTLEIQRTEQGDSAMYLCASSSGGRFYGYTFGSGTRLTVV : recognises
R23 (TCR, V domains shown) Valpha: KQEVTQIPAALSVPEGENLVLNCSFTDSAIYNLQWFRQDPGKGLTSLLLIQSSQREQTSGRLNASLDKSSGRSTLYIAASQPGDSATYLCAVRPQGGSEKLVFGKGTKLTVNP Vbeta: EAQVTQNPRYLITVTGKKLTVTCSQNMNHEYMSWYRQDPGLGLRQIYYSMNVEVTDKGDVPEGYKVSRKEKRNFPLILESPSPNQTSLYFCASTVGGTQYFGPGTRLTVL : recognises
